B1: VH:VL chains; a variant is named by its letters at X, in order (parent)
chain 1: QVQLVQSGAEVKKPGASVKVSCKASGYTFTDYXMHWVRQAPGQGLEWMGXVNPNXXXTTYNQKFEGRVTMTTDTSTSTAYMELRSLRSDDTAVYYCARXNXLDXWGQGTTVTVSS
chain 2: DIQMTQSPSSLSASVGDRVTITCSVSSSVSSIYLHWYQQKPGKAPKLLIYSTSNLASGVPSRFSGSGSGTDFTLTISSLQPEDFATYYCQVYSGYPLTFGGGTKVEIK

# Variants of: B1
# Test Name: yeast display scFab, FACS + sequencing
# Protocol Conditions: with MET
The list shows a part of the results. The hit rate among all sequences tested is not known here.
Measured Parameter: antigen binding call

>>> reported_result("FRTGDDAV")
"binds"
>>> reported_result("YRGKAAVD")
"binds"
>>> reported_result("SKGENALY")
"no binding"
>>> reported_result("YRGRGFGV")
"binds"
>>> reported_result("AEEEGSAA")
"no binding"
>>> reported_result("VRTEDASF")
"no binding"
>>> reported_result("YRAKGSSS")
"binds"
>>> reported_result("YRARDDVF")
"no binding"
>>> reported_result("FRTGDDGA")
"binds"
>>> reported_result("DAGEASAV")
"no binding"
>>> reported_result("AATTDAGD")
"no binding"
>>> reported_result("FKGRGAVY")
"binds"
>>> reported_result("FRTRDSGY chain 1 V68I")
"no binding"
>>> reported_result("FRKGGAGS")
"binds"
>>> reported_result("ARGRGSAA")
"binds"
>>> reported_result("FRGRDSGY")
"binds"
>>> reported_result("VRGGDDWF")
"no binding"
>>> reported_result("VEAGDSSS")
"no binding"
>>> reported_result("VTTRADVV")
"no binding"
>>> reported_result("DEGGTDGV")
"no binding"
>>> reported_result("FRTGDAGA")
"binds"
>>> reported_result("YRGRDDLA")
"no binding"
>>> reported_result("DGGENAGD")
"no binding"
>>> reported_result("YRKGGFSS")
"no binding"
>>> reported_result("YRTRSSVS")
"binds"
>>> reported_result("DGGADVGA")
"no binding"
>>> reported_result("ARTRTAWY")
"no binding"
>>> reported_result("YRAGASAV")
"binds"
>>> reported_result("VRARGAWF")
"binds"
>>> reported_result("AETAGAAA")
"no binding"
>>> reported_result("YTGGADAV")
"no binding"
>>> reported_result("VEGAASWF")
"no binding"
>>> reported_result("DRGRDDVA")
"no binding"
>>> reported_result("ARRRGAAA")
"binds"
>>> reported_result("FRGRSSVA")
"binds"
>>> reported_result("ARGRSDVA")
"no binding"
>>> reported_result("SEARSSAD")
"no binding"
>>> reported_result("DKGEGAGV")
"no binding"
>>> reported_result("AATTDDAV")
"no binding"
>>> reported_result("VTGGDSVD")
"no binding"
>>> reported_result("DTKGDSVS")
"no binding"
>>> reported_result("YRKGSSVS")
"binds"
>>> reported_result("VKTGGDVY")
"no binding"
>>> reported_result("YRKRGSVF")
"binds"
>>> reported_result("DTERDDAV")
"no binding"
>>> reported_result("DRGGDDAA")
"no binding"
>>> reported_result("YRGRDSSS")
"binds"
>>> reported_result("SEARSSSV")
"no binding"
>>> reported_result("YRGRGASF")
"binds"
>>> reported_result("VRTEDDWF")
"no binding"
>>> reported_result("DEGGDDAA")
"no binding"
>>> reported_result("YKGKGSLD")
"binds"
>>> reported_result("DRAGDDGA")
"no binding"
>>> reported_result("DAARGDAV")
"no binding"
>>> reported_result("YKKTGDLY")
"no binding"
>>> reported_result("DTTGSDVF")
"no binding"
>>> reported_result("ARAGDDAV")
"no binding"
>>> reported_result("DAARGDGV")
"no binding"
>>> reported_result("YRRRTAAV")
"binds"
>>> reported_result("STGGDDGA")
"no binding"
>>> reported_result("SEGGDAWV")
"no binding"
>>> reported_result("FRTGDDAA")
"binds"
>>> reported_result("YRKGGFVA")
"no binding"
>>> reported_result("YRARGAGF")
"binds"
>>> reported_result("VRAGADSV")
"no binding"
>>> reported_result("YRKGGSVS")
"binds"
>>> reported_result("FKGKGALD")
"binds"
>>> reported_result("VKAGDSSS")
"binds"
>>> reported_result("FKGGGAVY")
"no binding"
>>> reported_result("FRKRSFSS")
"no binding"
>>> reported_result("YRTGDDVF")
"no binding"

Hello, the source for this data is the emibetuzumab library of Makowski et al. (2022), in case you need it.
